molecular target: Paired box protein Pax-8 (Homo sapiens); assay: inhibitors of PAX8-driven TPO luciferase reporter, dose response, RMG-I cells, cherry-pick (AID 687027); type: functional, cell-based;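 note: luciferase reporter driven by Pax8 target thyroperoxidase promoter measured by SteadyGlo luminescence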
Sequence (Q06710 whole entry): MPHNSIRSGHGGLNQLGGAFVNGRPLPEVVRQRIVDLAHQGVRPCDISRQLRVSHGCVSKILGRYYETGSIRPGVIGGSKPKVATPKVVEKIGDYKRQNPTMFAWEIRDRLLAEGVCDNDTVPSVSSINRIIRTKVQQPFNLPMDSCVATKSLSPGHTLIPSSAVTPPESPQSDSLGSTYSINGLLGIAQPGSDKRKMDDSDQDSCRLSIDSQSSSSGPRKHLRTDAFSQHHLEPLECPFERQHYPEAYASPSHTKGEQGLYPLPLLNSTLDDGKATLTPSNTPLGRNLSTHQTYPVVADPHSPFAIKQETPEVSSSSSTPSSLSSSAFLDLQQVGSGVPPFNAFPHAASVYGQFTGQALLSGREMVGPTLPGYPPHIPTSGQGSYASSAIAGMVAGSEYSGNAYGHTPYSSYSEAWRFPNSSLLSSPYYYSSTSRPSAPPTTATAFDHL
Activity calls are given as the source filed them.
parameter: AC50

smiles.representation: COc1cc(C=C2C(=O)C=CC2=O)ccc1O
value.reported: 1.63 µM (active)
--
smiles.representation: C[C@@H]1CN([C@@H](C)CO)C(=O)c2cc(NC(=O)Nc3ccc(C(F)(F)F)cc3)ccc2O[C@@H](C)CCCCO[C@H]1CN(C)Cc1ccc(Cl)c(Cl)c1
value.reported: 9.66 µM (active)
--
smiles.representation: C[C@@H]1CN([C@H](C)CO)C(=O)c2cc(NC(=O)Nc3ccccc3)ccc2O[C@@H](C)CCCCO[C@H]1CN(C)C(=O)Nc1ccc(C(F)(F)F)cc1
value.reported: 10.8 µM (active)
--
smiles.representation: Cc1ccc(S(=O)(=O)c2nc(S(=O)(=O)c3ccccc3)sc2N2CCN(C)CC2)cc1
value.reported: 7.56 µM (active)
--
smiles.representation: CCCCCc1c(-c2ccccc2OC)ncn1CCc1ccccc1OC
value.reported: 24.9 µM (active)
--
smiles.representation: COc1cccc(C#Cc2ccc([C@H]3[C@@H](CO)N(C(=O)c4ccccn4)[C@H]3C#N)cc2)c1
value.reported: 2.41 µM (active)
--
smiles.representation: C[C@H](CO)N1C[C@H](C)[C@@H](CN(C)Cc2ccc(-c3ccccc3)cc2)Oc2ccc(NC(=O)Cc3ccccc3)cc2CC1=O
value.reported: 9.36 µM (active)
--
smiles.representation: COc1ccc2c3c(n(C)c2c1)[C@@H](CO)N(C(=O)Nc1ccc(F)cc1)CC31CCN(S(=O)(=O)c2cccc(C)c2)CC1
value.reported: 5.97 µM (active)

###

Reported IC50 values for a set of molecules
biological target: Genome polyprotein (dengue virus type 2); assay: Dengue-2 NS5 methyltransferase inhibitors, primary screen, biochemical, confirmation dose response (AID 588689); type: functional
Sequence (P29990 2492-3391 limits assumed): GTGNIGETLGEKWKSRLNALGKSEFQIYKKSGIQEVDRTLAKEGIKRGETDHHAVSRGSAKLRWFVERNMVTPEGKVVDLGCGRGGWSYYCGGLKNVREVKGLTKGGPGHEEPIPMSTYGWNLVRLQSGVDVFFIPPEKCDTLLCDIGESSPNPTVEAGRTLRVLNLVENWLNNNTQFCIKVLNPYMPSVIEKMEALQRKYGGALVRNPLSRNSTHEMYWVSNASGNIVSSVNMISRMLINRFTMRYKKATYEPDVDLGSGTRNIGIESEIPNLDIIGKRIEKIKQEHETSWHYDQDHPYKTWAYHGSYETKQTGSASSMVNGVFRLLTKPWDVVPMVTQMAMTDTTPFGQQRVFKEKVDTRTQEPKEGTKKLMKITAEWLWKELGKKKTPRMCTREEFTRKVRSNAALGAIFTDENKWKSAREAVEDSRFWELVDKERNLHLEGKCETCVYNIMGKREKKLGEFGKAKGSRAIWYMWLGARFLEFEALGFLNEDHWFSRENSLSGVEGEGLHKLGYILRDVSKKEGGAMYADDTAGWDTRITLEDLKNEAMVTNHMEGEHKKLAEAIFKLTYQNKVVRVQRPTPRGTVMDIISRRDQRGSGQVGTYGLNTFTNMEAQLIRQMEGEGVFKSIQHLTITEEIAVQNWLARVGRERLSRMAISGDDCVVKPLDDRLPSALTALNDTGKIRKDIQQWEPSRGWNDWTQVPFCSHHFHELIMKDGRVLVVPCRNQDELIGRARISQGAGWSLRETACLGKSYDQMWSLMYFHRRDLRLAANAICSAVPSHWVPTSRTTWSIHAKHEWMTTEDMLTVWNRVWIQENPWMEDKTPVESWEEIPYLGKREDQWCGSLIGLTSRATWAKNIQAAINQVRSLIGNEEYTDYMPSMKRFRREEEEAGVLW
Active and inactive are the calls of the source.

molecule: O=[N+]([O-])c1c(O)nc(O)nc1/C=C/c1ccc(Cl)cc1Cl
IC50: 49.1 µM (active)
--
molecule: O=C1/C(=C\c2ccc([N+](=O)[O-])cc2)CS(=O)(=O)C/C1=C/c1ccc([N+](=O)[O-])cc1
IC50: > 100 µM (active)
--
molecule: C=CCN1C(=O)NC(=O)/C(=C\c2ccc(-c3ccccc3[N+](=O)[O-])o2)C1=O
IC50: 25.2 µM (active)
--
molecule: Cc1ccc(-c2nc3ccc(C(=O)O)cc3nc2-c2ccc(C)cc2)cc1
IC50: 55.3 µM (active)
--
molecule: C#CCOc1ccc(/C=C2/C(=O)ON=C2C)cc1Br
IC50: 80.7 µM (active)
--
molecule: Cc1oc2c(c1C(=O)c1ccccc1)C(=O)C(=O)c1ccccc1-2
IC50: 48.4 µM (active)
--
molecule: O=C(O)CC1OCC=C2CN3CCC45C6=CC(=O)C(O)=C([N+](=O)[O-])C6=NC4C1C2CC35 (stereo not drawn)
IC50: > 100 µM (active)
--
molecule: O=C(O)c1ccc(Cl)c(S(=O)(=O)Nc2ccc(S(=O)(=O)Nc3cccc(Cl)c3)cc2)c1
IC50: 65.7 µM (active)

###

target: Endoribonuclease toxin MazF (Escherichia coli K-12); assay: MazF toxin RNase activators, dose response, biochemical, fluorescence, single-stranded RNA substrate, uHTS hits (AID 588481); type: functional
Sequence (P0AE70 whole entry): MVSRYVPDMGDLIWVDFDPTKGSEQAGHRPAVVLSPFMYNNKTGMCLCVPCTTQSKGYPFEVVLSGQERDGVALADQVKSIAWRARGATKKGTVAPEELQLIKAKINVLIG
Active and inactive are the calls of the source.
Reported EC50 values for a set of compounds

compound: CC1(C)CC(=O)C(=NNc2cc3c(cc2[N+](=O)[O-])OCCO3)C(=O)C1
EC50: > 99 µM (inactive)

compound: COc1ccc2nc3ccccc3nc2c1NC(=O)c1ccc(Cl)cc1Cl
EC50: > 99 µM (inactive)

compound: COc1ccc(-c2ccc(/C=C3/C(=N)N4C(C)=CSC4=NC3=O)o2)c([N+](=O)[O-])c1
EC50: > 99 µM (inactive)

compound: O=c1cc(-c2ccc(O)c(O)c2)oc2c1ccc1ccccc12
EC50: > 99 µM (inactive)

compound: CC(=O)c1ccc(N2CCN(C(=O)c3cc4c(C)nc5ccccc5c4o3)CC2)cc1
EC50: > 99 µM (inactive)

compound: Oc1nc2ccccc2nc1/C=C/c1ccc(F)cc1
EC50: 15.6 µM (active)

compound: COCc1n[nH]c2c1C(c1cc(OC)c(O)c(OC)c1)C(C#N)=C(N)O2 (stereo not drawn)
EC50: > 99 µM (inactive)

compound: O=C1c2ccccc2C(Nc2ccc(S(=O)(=O)N3CCCCCC3)cc2)N1c1ccccn1 (stereo not drawn)
EC50: 16.1 µM (active)

// provenance: ChEMBL document CHEMBL1201862
